Data provenance is patent US20220064329A1.

Please go through the items and note down their TGT activity (% FVIIa).
Biological target: T1, recombinant human activated Factor VII (FVIIa) (human, UniProt P08709 61-212; P08709 213-466, Gla domain: ten glutamate residues may be gamma-carboxylated)
T1 sequence 1: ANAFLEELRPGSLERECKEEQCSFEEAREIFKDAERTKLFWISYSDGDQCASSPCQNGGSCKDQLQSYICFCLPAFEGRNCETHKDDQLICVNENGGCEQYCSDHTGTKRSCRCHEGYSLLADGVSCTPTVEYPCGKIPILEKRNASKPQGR
T1 sequence 2: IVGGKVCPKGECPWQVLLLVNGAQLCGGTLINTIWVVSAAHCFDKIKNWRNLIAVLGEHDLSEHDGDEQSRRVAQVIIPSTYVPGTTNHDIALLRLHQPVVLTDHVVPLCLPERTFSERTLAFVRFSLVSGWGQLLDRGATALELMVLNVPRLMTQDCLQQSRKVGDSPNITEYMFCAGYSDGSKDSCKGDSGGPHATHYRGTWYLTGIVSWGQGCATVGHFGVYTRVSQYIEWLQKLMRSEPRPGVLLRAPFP
Test: cell-based or functional assay
Hi, when you answer, please include the unit after the number. Thanks!

Solved entries (count: 3):
>>> result("mAb0587 (antibody, V domains shown, fully murine, hybridoma-derived; also called 12F39) VH: QVQLQQSGAELLKPGASVKISCKATDYTFSRYWIEWVKQRPGHGLEWIGEILPGSVNIKYNEIFKGKATFTAETSSNTAYMQLSSLTSEDSAVYYCTRTPYLQRGAYWGQGTLVTVSA VL: QIVLTQSPAIMSASPGEKVTITCSASSSVSYMFWFQQKPGTSPKLWIYSTSNLASGVPARFSGSGSGTSYSLTISRMEAEDAATYYCQQRSSYPLTFGAGTKLELK")
"93 % FVIIa"
>>> result("mAb0001 (antibody, V domains shown, fully murine, hybridoma-derived; also called 11F26) VH: EIQLQQTGPELVKPGASVKISCKASGYSFTDYIMVWMKQSQGKTLEWIGKINPYYGDISYNLKFKGKATLTVDKSSSTVYMQLNSLASEDSAVYYCARGFYYDYFDQWGQGTTLTVSS VL: DVMVTQTPLSLPVNLGDQASISCRSSQSLVHSNGNTYLHWYLQKPGQSPKLLIYRVSDRFSGVPDRFSGSGSGTDFTLKISRVEAEDLGVYFCSQSTHVPPTFGGGTKLEIK")
"109 % FVIIa"
>>> result("mAb0701 (antibody, V domains shown) VH: QIQLQQSGPELVKPGTSVKMACKASDYTFTDYYLHWVKQRPGQGLEWIGWIYPGSGNTKFNEKFKGKATLTVDTSSSTAYMHLSSLTSDDTAVYFCTRVLGRGAMDYWGQGTSVTVSS VL: DIVLTQSPPSLAVSLGQRAIISCKASQSVSFAGTSLMYWYQQKPGQQPKVLMYRASNLEAGVPIRFSGSGSGTDFTLNIHPVEEDDVATYYCQQSREYPYTFGGGTKLEIK")
"88 % FVIIa"

Per the record, mAb0552 (antibody, V domains shown, fully murine, hybridoma-derived; also called 11F18) VH: DVQLQESGPGLVKPSQSLSLTCTVTGYSITSDCAWNWIRQFPGNKLEWMGYINYSGSTNYNPSLKSRISITRDTSKNHFFLQLNSVTAEDTATYYCARSVDYFGNSFAVGYWGQGTSVAVSS VL: DIVMTQSPATLSVTPGDRVSLSCRASQSISDYLHWYQQKSHESPRLLIKYSSQSISGIPSRFSGSGSGSDFTLSINSVEPEDVGVYYCQNGHSFPLTFGAGTKLELK has TGT activity (% FVIIa) of 104 % FVIIa
